- experimental target: Monoglyceride lipase (Homo sapiens)
- Sequence (Q99685 whole entry): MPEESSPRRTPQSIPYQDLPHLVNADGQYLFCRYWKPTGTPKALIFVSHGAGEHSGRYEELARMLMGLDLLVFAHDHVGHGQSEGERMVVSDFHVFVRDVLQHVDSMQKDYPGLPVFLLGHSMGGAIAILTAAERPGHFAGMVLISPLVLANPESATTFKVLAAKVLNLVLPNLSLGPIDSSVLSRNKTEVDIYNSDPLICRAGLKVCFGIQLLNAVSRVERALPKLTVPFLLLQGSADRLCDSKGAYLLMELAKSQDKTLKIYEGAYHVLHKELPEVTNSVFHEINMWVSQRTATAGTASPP
- experiment notes: Inhibition of human recombinant MAGL using 4-nitrophenylacetate as substrate incubated for 30 mins by microplate reader assay
Note to self: use 1 only for IC50 readings below 300 nM; a reading exactly at 300 nM still gets -1.

> print(dat)
                                    compound                  experimental.target  category.label
 1  O=C(c1ccc(Oc2ccccc2)cc1)C1CCN(C(=O)c2cccc(O)c2)CC1  Monoglyceride lipase (Homo sapiens)               1
 2  O=C(c1ccc(-c2cn(CCCc3ccccc3)nn2)cc1)C1CCN(C(=O)c2cccc(O)c2)CC1  Monoglyceride lipase (Homo sapiens)              -1
 3  Cc1ccc(O)cc1C(=O)N1CCC(C(=O)c2ccc(C(C)C)cc2)CC1  Monoglyceride lipase (Homo sapiens)              -1
 4  O=C(c1ccc(C2CC2)cc1)C1CCN(C(=O)c2cccc(O)c2)CC1  Monoglyceride lipase (Homo sapiens)              -1
 5  CC(C)c1ccc(C(=O)C2CCN(C(=O)c3cc(O)c(F)cc3F)CC2)cc1  Monoglyceride lipase (Homo sapiens)               1
 6  O=C(c1ccc(-c2cn(-c3ccccc3)nn2)cc1)C1CCN(C(=O)c2cccc(O)c2)CC1  Monoglyceride lipase (Homo sapiens)              -1
 7  O=C(c1ccc(Sc2ccccc2)cc1)C1CCN(C(=O)c2cc(O)c(F)cc2F)CC1  Monoglyceride lipase (Homo sapiens)               1
 8  CC(C)c1ccc(C(=O)C2CCN(C(=O)c3cccc(O)c3)CC2)cc1  Monoglyceride lipase (Homo sapiens)               1
 9  CC(C)c1ccc(C(=O)C2CCN(C(=O)c3cc(O)ccc3F)CC2)cc1  Monoglyceride lipase (Homo sapiens)               1
10  O=C(c1ccc(Cc2ccccc2)cc1)C1CCN(C(=O)c2cc(O)c(F)cc2F)CC1  Monoglyceride lipase (Homo sapiens)               1
11  O=C(c1ccc(Cc2ccccc2)cc1)C1CCN(C(=O)c2cc(O)ccc2F)CC1  Monoglyceride lipase (Homo sapiens)               1
12  O=C(c1ccc([S+]([O-])c2ccccc2)cc1)C1CCN(C(=O)c2cccc(O)c2)CC1 (stereo not given)  Monoglyceride lipase (Homo sapiens)              -1
13  CC(C)c1ccc(C(=O)C2CCN(C(=O)c3cncc(O)c3)CC2)cc1  Monoglyceride lipase (Homo sapiens)              -1
14  CC(C)c1ccc(C(=O)C2CCN(C(=O)c3cc(O)ccc3[N+](=O)[O-])CC2)cc1  Monoglyceride lipase (Homo sapiens)              -1
15  O=C(c1ccc(Sc2ccccc2)cc1)C1CCN(C(=O)c2cccc(O)c2)CC1  Monoglyceride lipase (Homo sapiens)               1
16  O=C(c1ccc(Sc2ccccc2)cc1)C1CCN(C(=O)c2cc(O)ccc2F)CC1  Monoglyceride lipase (Homo sapiens)               1
17  CC(C)c1ccc(C(=O)C2CCN(C(=O)c3cc(O)ccc3N)CC2)cc1  Monoglyceride lipase (Homo sapiens)              -1
18  O=C(c1ccc(-c2cn(Cc3ccccc3)nn2)cc1)C1CCN(C(=O)c2cccc(O)c2)CC1  Monoglyceride lipase (Homo sapiens)              -1
19  O=C(c1ccc(Nc2ccccc2)cc1)C1CCN(C(=O)c2cccc(O)c2)CC1  Monoglyceride lipase (Homo sapiens)              -1
20  COc1nn(-c2ccc(NC(=O)OCc3ccccc3)c(C)c2)c(=O)o1  Monoglyceride lipase (Homo sapiens)               1
